system: Penicillium citrinum; assay: Antifungal activity against Penicillium citrinum NCIM 768 after 72 hrs; assay type: functional; settings: Penicillium citrinum, NCIM 768, 72 h
Property: MIC

Below, each entry is followed by its recorded MIC result.
OC(Cn1cncn1)(Cn1cncn1)c1ccc(F)cc1F: 6.25 µg/mL
Cc1ccc(NCc2cc3cccc(C)c3nc2Cl)cc1: 100 µg/mL

Turning to the following compound.
Q) // returns reported MIC for input `Cc1cccc2cc(CNC3CCCCC3)c(Cl)nc12`
A) 200 µg/mL

###

test system: Penicillium citrinum; test: Antifungal activity against Penicillium citrinum NCIM 768 after 72 hrs; type: functional; conditions: Penicillium citrinum, NCIM 768, 72 h
Property: MIC (µg/mL)
Unit µg/mL implied. Number only.

Below, each entry is followed by its recorded MIC result.
Cc1cccc2cc(CNc3ccc(Br)cc3)c(Cl)nc12: 100
Cc1cccc2cc(CNc3ccccc3)c(Cl)nc12: 100
CCCCNCc1cc2cccc(C)c2nc1Cl: 200

Q) // returns reported MIC for input `Cc1cccc2cc(CNc3ccc(Cl)c(Cl)c3)c(Cl)nc12`
A) 25

Where these numbers come from: ChEMBL document CHEMBL1667762
